# ASSAY TARGET: RNA-directed RNA polymerase (Hepacivirus hominis)
# ASSAY: Inhibition of replication of HCV 1b BK RNA in Huh7 cells at 100 uM in presence of 10% fetal calf serum
# Format: functional, cell-based
# CONDITION DETAILS: Huh-7
Calls of active or inactive are those of the source. The calls are words filed in the database; no cut-off is given here.
PROPERTY: inhibition

Below are worked cases with known answers.
CS(=O)(=O)c1nc(O)c(O)c(C(=O)O)n1 ... inactive
O=C(O)c1nc(-c2cccs2)nc(O)c1O ... inactive
O=C(O)c1nc(-c2nccs2)nc(O)c1O ... < 20%
O=C(Nc1ccsc1-c1nc(O)c(O)c(C(=O)O)n1)OCCc1ccccc1 ... < 20%

Hello, please tell me recorded inhibition for this one: CSc1nc(O)c(O)c(C(=O)O)n1
inactive

Hello, please tell me recorded inhibition for this one: O=C(O)c1nc(C2CCCCC2)nc(O)c1O
inactive

====

# ASSAY TARGET: RNA-directed RNA polymerase (Hepacivirus hominis) (UniProt O39930)
# Sequence (O39930 1-591): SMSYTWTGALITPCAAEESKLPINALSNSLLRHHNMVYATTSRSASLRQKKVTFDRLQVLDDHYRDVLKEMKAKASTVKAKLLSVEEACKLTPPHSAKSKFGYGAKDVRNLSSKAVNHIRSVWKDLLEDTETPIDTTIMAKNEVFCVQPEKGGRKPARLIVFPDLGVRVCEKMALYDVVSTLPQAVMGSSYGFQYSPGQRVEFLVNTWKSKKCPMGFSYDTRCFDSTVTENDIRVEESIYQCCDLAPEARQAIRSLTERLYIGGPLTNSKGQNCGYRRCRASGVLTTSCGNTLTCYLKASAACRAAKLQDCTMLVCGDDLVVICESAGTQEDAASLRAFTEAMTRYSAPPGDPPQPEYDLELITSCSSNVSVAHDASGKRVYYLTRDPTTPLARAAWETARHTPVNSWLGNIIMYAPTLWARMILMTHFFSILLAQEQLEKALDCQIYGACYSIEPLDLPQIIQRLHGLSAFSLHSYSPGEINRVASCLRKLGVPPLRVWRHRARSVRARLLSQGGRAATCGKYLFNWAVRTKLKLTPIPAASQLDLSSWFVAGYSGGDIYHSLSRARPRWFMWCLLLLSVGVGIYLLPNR
# ASSAY: Inhibitory activity against HCV 1b BK NS5B deltaC55 RNA polymerase at 50 uM
# CONDITION DETAILS: Hepatitis C virus subtype 1b
# maps each entry to its inhibition
Number only, in %; omit the unit.

Below are worked cases with known answers.
O=C(O)c1nc(Cc2ccccc2)nc(O)c1O ... 24
CSc1nc(O)c(O)c(C(=O)O)n1 ... 55
CCCCc1nc(O)c(O)c(C(=O)O)n1 ... 0
O=C(O)c1nc(-c2ncc[nH]2)nc(O)c1O ... 50

Hello, please tell me recorded inhibition for this one: O=C(O)c1nc(-c2nccn2Cc2ccccc2)nc(O)c1O
30
